# Lookup of reported Aurora A degradation (%) at 5 µM keyed by entry
SYSTEM_UNDER_TEST: Aurora A proteins (Homo sapiens, UniProt O14965)
Construct: endogenous in cells; host or cells: MM.1S
Sequence (O14965 whole entry): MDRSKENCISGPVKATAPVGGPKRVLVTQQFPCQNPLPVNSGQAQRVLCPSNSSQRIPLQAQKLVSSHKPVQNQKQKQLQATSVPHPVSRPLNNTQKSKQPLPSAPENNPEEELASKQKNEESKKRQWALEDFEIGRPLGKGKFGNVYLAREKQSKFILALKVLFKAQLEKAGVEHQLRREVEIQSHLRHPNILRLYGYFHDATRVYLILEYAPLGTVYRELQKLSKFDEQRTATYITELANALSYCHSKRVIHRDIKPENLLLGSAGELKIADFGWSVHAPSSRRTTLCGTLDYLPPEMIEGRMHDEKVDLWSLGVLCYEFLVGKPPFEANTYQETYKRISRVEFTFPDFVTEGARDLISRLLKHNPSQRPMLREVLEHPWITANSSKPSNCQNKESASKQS
ASSAY_DETAILS: Degradation of Aurora A protein in MM.1S cell lines (Western blot densitometry)
Type: cell-based
CONDITION_DESCRIPTION: MM1.S, 24 h, read-out: Aurora A degrading capacity (%)

Use the examples below as a reference point.
[[record]]
compound = "COc1cc(Nc2ncc3c(n2)-c2ccc(Cl)cc2C(c2c(F)cccc2OC)=NC3)ccc1C(=O)NCCCC(=O)Nc1ccc(C#CCN)c(CO)c1 [5-8″, trifluoroacetic acid]"
result_value = "< 40%"

[[record]]
compound = "COc1cc(Nc2ncc3c(n2)-c2ccc(Cl)cc2C(c2c(F)cccc2OC)=NC3)ccc1C(=O)Nc1cccc(C#CCN)c1 [1-3″, trifluoroacetic acid]"
result_value = "> 70%"

[[record]]
compound = "COC(=O)c1ccc(NC(=O)c2ccc(Nc3ncc4c(n3)-c3ccc(Cl)cc3C(c3c(F)cccc3OC)=NC4)cc2OC)cc1C#CCN [3-25″, trifluoroacetic acid]"
result_value = "< 40%"

[[record]]
compound = "COC(=O)c1ccc(N(C)C(=O)CCCNC(=O)c2ccc(Nc3ncc4c(n3)-c3ccc(Cl)cc3C(c3c(F)cccc3OC)=NC4)cc2OC)cc1C#CCN [5-150″, trifluoroacetic acid]"
result_value = "< 40%"


Quick one: Aurora A degradation (%) at 5 µM for COC(=O)c1ccc(NC2CCC(NC(=O)c3ccc(Nc4ncc5c(n4)-c4ccc(Cl)cc4C(c4c(F)cccc4OC)=NC5)cc3OC)CC2)cc1C#CCN (centres unmarked) [5-35″, trifluoroacetic acid] ?
> 70%
